Value source: the DeepSol protein solubility set

Test: soluble on expression in E. coli; label from the status in PepcDB or PDB records
Measured property: soluble on expression in E. coli

Input sequence | Observed result
MDFTQQLQACVTQANQALSRFIAPLPFQNTPVVEAMQYGALLGGKRLRPFLVYATGQMFGVSTATLDAPAAAVECIHAYSLIHDDLPAMDDDDLRRGLPTCHIKFGEANAILAGDALQTLAFAIISDAPMPEVADRDRIAMIAELANASGIAGMCGGQALDLAAEGQRITLDALERIHRHKTGALIRAAVRLGALSAGDKGRNTLPILDRYAESIGLAFQVQDDILDVVGDTATLGKRQGADQQLGKSTYPALLGLEQARNKARDLIEDARQSLHQLAAQSLDTSALEALANYIIQRDK | not soluble
MAHHHHHHMKFIPLDSFSALNSLLQGVEAQGCCITMRLEAYTCRHTKEERQIANSIACYQNNVQLTPPISPLPTIGAYAGCTQEALPPLVLGGSAENVAASYSLVSPNEIDDRLVYFVAALNTVYESDGYDFSVLRENDFVRYTEPQFRTEVSSTLQSLPEQCRPAVQRFWPTIEEVVENAESGCEYYEFRCPSCNPLADTTVYARHYFVYNRRKKVLVLLVEYGESNPYRGDDGLPHAGDPTSAWDAESPTYASTPDLGEEGEAYDGGKNRQFYGYY | soluble
GPGSMTIDAVSPLFADISREYGAAFDAAIARNVADALAEDVGSGDQTGRLVPDGAPRRARVIVREDAVLCGVPWFDAVVRAVDPSIEVDWRHREGDRMSADSTVCELRGPARALLTAERNALNFLQLLSGVASATRQYVDRIADTRARILDTRKTLPGLRLAQKYAVRVGGGANQRLALYAGILIKENHIAAAGGVGEALDAAFALNAEVPVQIEVETLDQLRTALAHGARSVLLDNFTLDMMRDAVRVTEGRAVLEVSGGVNFDTVRAIAETGVDRISIGALTKDVRATDYSMRIVE | soluble
MTRLSSGAKLNHPESSVCSPVYSWSTCIRKTSPVLFSSTIFALRRMTAPSAPCAQAPQLTRRWAKIVVENRTGSHFKIQVLHEYTGEQTNDSGYIDFKPDDRITVFEKIYYNTGFFTTGVDNWKVHGTKLIQVETEGTIARNIFGKFFVDGLPYSTGHGAFAKWKKHTLRADDDGQETVIKVFQTEVQFISPSGRSVTTFNTLGENILPFSQNPQKQ | not soluble
PQEVESYVHRIGRTGRAGKEGTAITFITPQEYRRLLQIQKAVKKEIKKEKLPDVKDVIQAKKFRIIDDIGQILIDNDYDKFKKLAKDLLKMEDAENIVASLLKLSYSDVLDESNYNEISPVKMEDTGKTRLFIAMGRKDGMTPK | not soluble
MGSDKIHHHHHHMNRLIGEKMNDVLSKVTDKEYLKQIEDVIKFHGHLSGGAFIGIQMYNIAKKVLDIKDTDRVYANCETRNCMPDAFQVLGNCTTGNKRLSIKDYDIMAVTVNKIIPENEVGTGVRIVFDHKKAEKYPALYNWFMNIKKVPHEEVISDLIDAGDSIYSWKSVEIHVSEKKPKFSAVCGLCGESFIKKGTDDENICPNCAEKSAE | not soluble
MSLGIPKHDFYLYQSQWVSVKKKPMVHLLPHWNWENKELASKVADSEGKIPVRAYSNASSVELFLNGKSLGLKTFNKKQTSDGRTYQEGANANELYLEWKVAYQPGTLEAIARDESGKEIARDKITTAGKPAAVRLIKEDHAIAADGKDLTYIYYEIVDSQGNVVPTANNLVRFQLHGQGQLVGVDNGEQASRERYKAQADGSWIRKAFNGKGVAIVKSTEQAGKFTLTAHSDLLKSNQVTVFTGKKEGQEKTVLGTEVPKVQTIIGEAPEMPTTVPFVYSDGSRAERPVTWSSEGHHHHHH | soluble
MAHHHHHHMARSLQDPRLSFYCEQYDHIAHRMNHYVLQFYFEDRTVEIREVTKNRLHLKRAHFPHLNRDDFKVGSSLSLLGGVIKLTAYADEVTRELCGERGEVTAVMFGEQLLPQLGRCLAVLTEECGFVALEMQMAWLPVETAAAYGVPPDLVEGRIVVVKCANTNALQRGIDFMARMPGARAAESVEEVGRWEQIVEKAKEQPVAILGDPNSTVVIIKPHALQKLAGGVIVQQLIDAGLEISGISLTNMTSQQANELLKPYKGVLPDFPDTMRSLMGTVWVLQFVSLDEGVDVVSVAREVCGPFDPVIAKELRPTSIRARFGVDRAHNAVHCCDLHEEGPLYSNFFFRPEDVDE | not soluble
IPKNTGGVLNSSVLDDAFSFITSYFDIEYGGLGFGAKFPHPFVDLLFLNYSATRGDDLGKKLGLFTLRKMYYGGIFDQVGGGFHRYTVDREWKLPHFEKLLIDNAELIYDYFTYYIATNDIEILDALRNSVDFVLRELYIDGKGFANSLDADSEGMEGKYYTWTEDELKDSLGNDY | not soluble
MGSDKIHHHHHHMRFYTKTHKYYCGIDLHARKKYVCILDSEGTVLVHREINCNPESFLRLVAPYREDLVVGVECMFAWYWLADLCRNEKIEFVLGHALYMKAVHGGKAKSDKIDAHKIAVLLRGGMFPLAYVYPPEMRATRDLLRRRNFFVRKRAELMAHIQNTVTQYNLAPLGIDLGVEENRHEVAQLFHDPEVRKIIEIDVAMIDAFDDVINVLEPDIEKTARQHNLHALKLLRSINGVGKVLGLVMLYEIHDINRFPTVQDFSSYCRLVKCAHESAGKKKGVGGSKIGNVHLKWAFSEAAVFFVRHNPQAKILMEKLVKIHGKGKAISILAHKLARAIFYMLKNNVPFDREKFLATA | not soluble
MAKKPSKKKVKRQVASGRAYIHASYNNTIVTITDPDGNPITWSSGGVIGYKGSRKGTPYAAQLAALDAAKKAMAYGMQSVDVIVRGTGAGREQAIRALQASGLQVKSIVDDTPVPHNGCRPKKKFRKAS | soluble
